Molecular target: T1, human CD37 protein (human, UniProt P11049 1-281)
T1 construct: Four-pass transmembrane tetraspanin
T1 sequence: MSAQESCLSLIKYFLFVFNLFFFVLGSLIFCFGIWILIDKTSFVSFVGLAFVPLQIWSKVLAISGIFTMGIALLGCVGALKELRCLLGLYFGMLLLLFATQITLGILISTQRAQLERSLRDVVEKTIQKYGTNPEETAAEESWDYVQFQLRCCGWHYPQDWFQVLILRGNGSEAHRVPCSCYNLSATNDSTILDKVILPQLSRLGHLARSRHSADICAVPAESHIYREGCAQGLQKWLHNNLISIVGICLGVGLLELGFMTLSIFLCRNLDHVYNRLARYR
Assay: flow cytometry on OCI-LY7 cells, FITC anti-human IgG Fc secondary

>  <binder>
hmAb-H541L11-DXd (antibody, human IgG1, kappa, V domains shown, drug linker on sulfhydryl groups of reduced interchain disulfide cysteines; positions not given; drug linker (maleimidocaproyl-GGFG-DXd, exatecan derivative) on sulfhydryl groups of reduced interchain disulfide cysteines by thioether bond; average number of conjugated drug molecules per antibody 7.8 (common procedure F); positions not given, also called hmAb-H541L11-ADC) VH: EVQLVQSGAEVKKPGASVKVSCKASGYSFTDYNMYWVRQAPGQSLEWMGYIDPYNGDTTYNQKFQGRVTMTRDTSISTAYMELSRLRSDDTAVYYCARSPYGHYAMDYWGQGTTVTVSS VL: DIQMTQSPSSLSASVGDRVTITCKASQDVSTAVDWYQQKPGKAPKLLINWASTRHTGVPSRFSGSGSGTDFTLTISSLQPEDFATYYCRQHYSTPFTFGQGTKVEIKR

>  <binding result>
binds

$$$$
>  <binder>
hmAb-H551L11-DXd (antibody, human IgG1, kappa, V domains shown, drug linker on sulfhydryl groups of reduced interchain disulfide cysteines; positions not given; drug linker (maleimidocaproyl-GGFG-DXd, exatecan derivative) on sulfhydryl groups of reduced interchain disulfide cysteines by thioether bond; average number of conjugated drug molecules per antibody 7.8 (common procedure F); positions not given, also called hmAb-H551L11-ADC) VH: EVQLVQSGAEVKKPGASVKVSCKASGYSFTDYNMYWVRQAPGQSLEWMGYIDPYNGDTTYNQKFQGRVTMTRDTSSSTAYMELSRLRSDDTAVYYCARSPYGHYAMDYWGQGTTVTVSS VL: DIQMTQSPSSLSASVGDRVTITCKASQDVSTAVDWYQQKPGKAPKLLINWASTRHTGVPSRFSGSGSGTDFTLTISSLQPEDFATYYCRQHYSTPFTFGQGTKVEIKR

>  <binding result>
binds

$$$$
>  <binder>
hmAb-H11aL11-DXd (antibody, human IgG1, kappa, V domains shown, drug linker on sulfhydryl groups of reduced interchain disulfide cysteines; positions not given; drug linker (maleimidocaproyl-GGFG-DXd, exatecan derivative) on sulfhydryl groups of reduced interchain disulfide cysteines by thioether bond; average number of conjugated drug molecules per antibody 7.6 (common procedure F); positions not given, also called hmAb-H11aL11-ADC) VH: EVQLVQSGAEVKKPGASVKVSCKASGYSFTDYNMYWVRQAPGQSLEWMGYIDPYNGDTTYNQKFQGRVTITADKSKSTAYMELSSLRSEDTAVYYCARSPYGHYAMDYWGQGTLVTVSS VL: DIQMTQSPSSLSASVGDRVTITCKASQDVSTAVDWYQQKPGKAPKLLINWASTRHTGVPSRFSGSGSGTDFTLTISSLQPEDFATYYCRQHYSTPFTFGQGTKVEIKR

>  <binding result>
binds

$$$$
>  <binder>
hmAb-H11aL11 (antibody, human IgG1, kappa, V domains shown, Unconjugated humanized IgG1 kappa antibody; also called anti-CD37 humanized antibody having hmAb-H11a as a heavy chain and hmAb-L11 as a light chain) VH: EVQLVQSGAEVKKPGASVKVSCKASGYSFTDYNMYWVRQAPGQSLEWMGYIDPYNGDTTYNQKFQGRVTITADKSKSTAYMELSSLRSEDTAVYYCARSPYGHYAMDYWGQGTLVTVSS VL: DIQMTQSPSSLSASVGDRVTITCKASQDVSTAVDWYQQKPGKAPKLLINWASTRHTGVPSRFSGSGSGTDFTLTISSLQPEDFATYYCRQHYSTPFTFGQGTKVEIKR

>  <binding result>
binds

$$$$
